tested on: TK-10 renal; test: NCI-60 one-dose screen, 48 h (100 = growth as untreated, 0 = no growth, -100 = all killed); settings: 10 µM unless noted
The panel holds about 83,000 compounds, 20% with a hit somewhere; the sample as a whole holds those more often.
property.name: growth (%)
A number alone suffices; assume %.

Completed entries (count: 2):
compound | readout.units | growth
Clc1cccc(/C=N/Nc2nc(N/N=C/c3cccc(Cl)c3)nc(N3CCCCC3)n2)c1 | % | 106
CCCCCCNC(=O)Oc1ccc(/C(=C(/C)c2ccc(Cl)cc2)c2ccc(OCCN3CCCCCC3)cc2)cc1 | % | 95.8

Record Cc1[nH]c(C(=O)Nc2ccccc2OCc2cccc(C(=O)NCCN)c2)cc1Cl . Reported growth: 98.9

For reference, reported growth for CCN(CC)CCOc1ccc(C(=C(C)c2ccc(OC)cc2)c2ccc(OCCN(CC)CC)cc2)cc1 stands at 18.8

What the record says about COc1cc2c3c(cc4c5c(ccc4c3c1OC)OCO5)N(CCN(C)C)C2=O : growth is -4.01

compound CC(C)(O)c1cncc(-c2ccc3ncc(C#N)c(N4CCc5cc(F)c(Cl)cc54)c3c2)c1 , growth observed: 14.3

# growth of CC(Nc1c(C#N)cnc2ccc(-c3cncc(-c4n[nH]c(=O)o4)c3)cc12)c1ccccc1 (stereo not given) = -23.8

get_value(item= O=C(Nc1cccc(C(F)(F)F)c1)N1CCN(c2cc(-c3cn(-c4ccccc4)nc3-c3cccc(O)c3)ccn2)CC1 , readout=growth) returns 63.3

CC/C(=C(/c1ccc(Cl)cc1)c1ccc(OCCN)cc1)c1ccccc1 yielded growth of 115

Sure, the documented growth for O=S(=O)(NCCCNc1nccc(-c2[nH]c(-c3ccccc3)nc2-c2ccc(F)c(O)c2)n1)c1cccc2ccccc12 is 72.5

growth measured on Cc1cc(Br)ccc1-n1cc(C#N)c(N)c1C(=O)c1ccc(Br)cc1 = 87

Lab note: measured growth of CCOc1cccc(/C(N)=N/C(N)=N/c2nc3ccccc3s2)c1 was 135

Value of measured growth for the entry C#CCN(C)CCCOc1ccc(NCc2ccc(/C=C/C(=O)NO)cc2)cc1Cl : -12

The compound listed as Cc1ccc(-c2csc(N/N=C/c3cccs3)n2)cc1 shows growth equal to 151

====

system: OVCAR-3 ovarian; test: NCI-60 one-dose screen, 48 h (100 = growth as untreated, 0 = no growth, -100 = all killed); conditions: 10 µM unless noted
The panel holds about 83,000 compounds, 20% with a hit somewhere; the sample as a whole holds those more often.
property.name: growth (%)
Use % as the unit, but write only the number.

compound | assay.system | growth [%]
CC(C)(C)Nc1nc2c(OCCc3ccccc3)cccn2c1-c1cccc(Oc2ccccc2)c1 | OVCAR-3 ovarian | 24
CC1=C(C)C(=O)C(Nc2cccc(C(=O)OC(C)(C)C)c2)=C(Cl)C1=O | OVCAR-3 ovarian | 101
CN1CCN(c2ccc(Nc3nc(NCCNC(=O)c4ccccc4)c4sccc4n3)cc2)CC1 | OVCAR-3 ovarian | 76.9
COc1cc(C(=O)c2cc(C(C)=O)c3c(C)cccn23)cc(OC)c1OC | OVCAR-3 ovarian | 115
O=C(/C=C/c1ccccc1)c1cccc(O)c1 | OVCAR-3 ovarian | 106

Reported growth of CN1CCN(c2ccc(Nc3nc(NCCCNS(=O)(=O)c4cccc(F)c4)c4sccc4n3)cc2)CC1 : 9.74

growth in this record for O=C(CSc1nnc(-c2ccc(Cl)cc2)n1-c1ccccc1)Nc1cccc(F)c1 : 51.9

// growth value for COc1ccc(/C=N/NC(=O)CSc2nc(-c3cnccn3)cc(-c3cccs3)c2C#N)cc1OC : 99

Form: compound = COc1cc(-c2nc(-c3ccccc3)[nH]c2-c2ccnc(NCCCNS(=O)(=O)c3cccc(F)c3)n2)ccc1F ; growth = 109

compound CCCC/C(=C\c1ccc(O)c(O)c1)C(=O)NC(Cc1ccccc1)C(=O)C(=O)NCCc1ccc(OC)cc1 (configuration not stated) , growth observed: 93.7

Summary for this compound, CC1=C(C)C(=O)C(Nc2ccc3c(c2)OCO3)=C(Br)C1=O : growth is 104

So, CCOC(=O)C1=C(C)NC(C)=C(C(=O)OCc2ccccc2)C1c1cccc(C#N)c1 (configuration not stated) ? Its growth was 23.6

Record Clc1ccc(CSc2nnc(-c3ccc(Cl)cc3)n2-c2ccccc2)cc1 , field growth: 101

Recorded result, Cc1ccc(S(=O)(=O)NCCCNc2nccc(-c3[nH]c(-c4ccccc4)nc3-c3ccc(F)c(O)c3)n2)cc1 , growth: 132

growth recorded for this compound, CCC(=C(c1ccc(OCCN(C)C)cc1)c1ccc(OCCN(C)C)cc1)c1ccc(Cl)cc1 , is -34.8

The compound listed as O=C(CSc1nc2ccccc2c(=O)n1-c1ccccc1)N/N=C/c1ccc(Oc2ccc(Cl)cc2)cc1 shows growth equal to 111

growth in this record for O=C(/C=C/c1cccc(Br)c1)c1cccc(OCCCCOc2cccc(C(=O)/C=C/c3cccc(Br)c3)c2)c1 : 105

Noted for Cc1ccc(/C(N)=N/C(N)=N/c2nc3ccccc3s2)cc1 : its growth reads 106

====

tested on: SK-OV-3 ovarian; assay: NCI-60 one-dose screen, 48 h; conditions: 10 µM unless noted
Compounds without any hit were thinned out: in the full panel of roughly 83,000, 20% have a hit. Activity calls are given as the source filed them. Rule for the calls: active = growth percent below 10; inactive = the rest.
Write down one outcome, taken from active, inactive

Use these answered entries as a reference point.
molecule | category
O=C(CCCCCCN1CC(=O)N2[C@@H](c3ccc(Cl)s3)c3[nH]c4ccccc4c3C[C@H]2C1=O)NO | inactive
CNC(=O)c1cc(-c2ccc(NC(=S)Nc3cccc(C(F)(F)F)c3)cc2)nc2cccnc12 | inactive
O=[N+]([O-])c1ccc(NC(=S)NNC(=S)Nc2ccc(F)cc2)cc1 | inactive
CCCCSC1=C(Cl)CN(c2ccc(Cl)cc2)C1=O | inactive
CCOC(=O)c1c(NC(=O)c2ccc(C(F)(F)F)cc2)sc2c(CN3CCN(C)CC3)c(O)ccc12 | active

// next entry
In: Tell me the assay call for NS(=O)(=O)c1ccc(Nc2nc(Nc3ccccc3)nc(N3N=C(c4ccc(Cl)cc4)CC3c3ccc(Cl)cc3)n2)cc1 (stereo not given) please.
Out: inactive

====

Collected growth values appear next to each entry.
tested on: NCI-H322M lung; experiment: NCI-60 one-dose screen, 48 h (100 = growth as untreated, 0 = no growth, -100 = all killed); conditions: 10 µM unless noted
This is part of a sample that, as a whole, favours compounds with a hit. Of some 83,000 tested, about 20% had one in any assay.
Unit % implied. Number only.

Would you please look over these solved cases?
compound | assay.system | property.name | meas.value
COc1ccc2c(c1)C=CC1(O2)Oc2ccc(OC)cc2C=C1C (configuration not stated) | NCI-H322M lung | growth | 49.5
CCCc1cc2cc(-n3nc(CC)c4c3CC(C)(C)CC4=O)cc(NC3CCC(O)CC3)c2c(=O)[nH]1 (configuration not stated) | NCI-H322M lung | growth | 35.1
CN1CCN(CC#CCn2c3c(c4ccccc42)C[C@]2(C)[C@H]4CC=C5[C@@H]6CC(C)(C)CC[C@]6(C(=O)N6CCOCC6)CC[C@@]5(C)[C@]4(C)CC[C@H]2C3(C)C)CC1 | NCI-H322M lung | growth | 94.9
CCC(=C(c1ccc(OCCN(C)C)cc1)c1ccc(OCCN(C)C)cc1)c1ccc(Cl)cc1 | NCI-H322M lung | growth | 5.04
C=C(C)[C@@H]1CC[C@]2(COCCCNCCCN)CC[C@]3(C)[C@H](CC[C@@H]4[C@@]5(C)CC[C@H](O)C(C)(C)[C@@H]5CC[C@]43C)[C@@H]12 | NCI-H322M lung | growth | -90.2

The value of growth recorded for CCc1cccc2c3c(sc12)C(c1ccc(F)cc1)C(C#N)=C(/N=C/c1ccc(Cl)cc1)O3 (configuration not stated) when tested on NCI-H322M lung reads 52.9

Summary line: Cc1ccc2c(n1)C(=O)C(Cl)=C(Nc1ccc(C#N)cc1)C2=O , NCI-H322M lung, reported growth = 109

Response field growth (NCI-H322M lung) for item CNC(=O)c1cc(N2CCc3cc(NC(=O)Nc4ccc(N5CCN(C)CC5)c(C(F)(F)F)c4)ccc32)ccn1 : 96.6

Reported growth (NCI-H322M lung) for entry O=C(/C=C/c1ccc(Cl)c(Cl)c1)Nc1ncc(Cc2ccc(Cl)c(Cl)c2)s1 is 58.5

Considering CC(O)c1cccc(/C(N)=N/C(N)=N/c2nc3ccccc3s2)c1 (configuration not stated) , its growth with NCI-H322M lung was recorded as 97.4

Measured growth (NCI-H322M lung), entry CC[C@H](CC[C@@H](C)[C@H]1CC[C@H]2[C@@H]3CC(=O)C4=CC(=O)/C(=C/c5ccc([N+](=O)[O-])cc5)C[C@]4(C)[C@H]3CC[C@]12C)C(C)C : 103

Form field, growth with NCI-H322M lung, item N#Cc1c(-c2cccs2)c(C#N)c(=O)n(Cc2nc3ccccc3[nH]2)c1N : 98.5

# Cc1cc(NS(=O)(=O)c2ccc(NC(=O)CSc3nc4ccccc4c(=O)n3-c3ccccc3)cc2)no1 with NCI-H322M lung: growth is 83.9

Item CCOP(=O)(OCC)OC[C@]12CCC(C)(C)CC1C1=CC[C@@H]3[C@@]4(C)CCCNC(C)(C)[C@@H]4CC[C@@]3(C)[C@]1(C)CC2 (some centres not stated) was tested on NCI-H322M lung; the reported growth is 95.7

The reported NCI-H322M lung growth of COc1ccc2[nH]cc(/C=N/Nc3ccnc4cc(Cl)ccc34)c2c1 is -100

Field growth (system: NCI-H322M lung) for entry O=c1c2ccccc2cc2n1CCN=C2c1ccccc1 = 99.7

O=C(COc1ccc(/C=C2\C(=O)Nc3cc(Cl)ccc32)cc1)Nc1ccc(Cl)cc1 tested on NCI-H322M lung gave growth: 74.4

Recorded values, source PubChem BioAssay (NCI).
